residual activity overview
assayed target: Protein kinase C theta type (Homo sapiens)
measurement setup: at 10 µM
Show the value, then the unit it is measured in.

Reference set, count: 2
COc1ccc2c(c[n+](C)c3c4cc5c(cc4ccc23)OCO5)c1OC; 66%
O=C1Nc2ccc3ncsc3c2/C1=C/c1c[nH]cn1; 10%

Data request: For O=c1[nH]c2ccccc2n1C1CCN(Cc2ccc(-c3nc4cc5[nH]cnc5cc4nc3-c3ccccc3)cc2)CC1 , what is its reported residual activity?
Data returned: 109%

Data request: Fill blank: measured residual activity of the compound O=C1NC(=O)c2c1c1c3ccccc3n3c1c1c2c2ccccc2n1C1CCC3O1 is ____.
Data returned: 13%

Data request: Entry under review: COC(=O)[C@@]1(O)C[C@H]2O[C@]1(C)n1c3ccccc3c3c4c(c5c6ccccc6n2c5c31)C(=O)NC4 . Reported residual activity?
Data returned: 5%

Data request: Dear colleague, I am looking for the recorded residual activity of the following compound: COc1cc2ncnc(Nc3ccc(OCc4ccccc4)cc3)c2cc1OC
Data returned: 114%

Data request: Query: residual activity; subject: CC(C)(C)c1cc(C=C(C#N)C#N)cc(Br)c1O
Data returned: 75%

Data request: For the compound CCc1nc(-c2ccc(OC)cc2)[nH]c1-c1ccncc1 , what residual activity is on record?
Data returned: 105%

---

Listing: residual activity of selected molecules
assayed target: Ribosomal protein S6 kinase alpha-6 (Homo sapiens) (UniProt Q9UK32)
Sequence (Q9UK32 whole entry): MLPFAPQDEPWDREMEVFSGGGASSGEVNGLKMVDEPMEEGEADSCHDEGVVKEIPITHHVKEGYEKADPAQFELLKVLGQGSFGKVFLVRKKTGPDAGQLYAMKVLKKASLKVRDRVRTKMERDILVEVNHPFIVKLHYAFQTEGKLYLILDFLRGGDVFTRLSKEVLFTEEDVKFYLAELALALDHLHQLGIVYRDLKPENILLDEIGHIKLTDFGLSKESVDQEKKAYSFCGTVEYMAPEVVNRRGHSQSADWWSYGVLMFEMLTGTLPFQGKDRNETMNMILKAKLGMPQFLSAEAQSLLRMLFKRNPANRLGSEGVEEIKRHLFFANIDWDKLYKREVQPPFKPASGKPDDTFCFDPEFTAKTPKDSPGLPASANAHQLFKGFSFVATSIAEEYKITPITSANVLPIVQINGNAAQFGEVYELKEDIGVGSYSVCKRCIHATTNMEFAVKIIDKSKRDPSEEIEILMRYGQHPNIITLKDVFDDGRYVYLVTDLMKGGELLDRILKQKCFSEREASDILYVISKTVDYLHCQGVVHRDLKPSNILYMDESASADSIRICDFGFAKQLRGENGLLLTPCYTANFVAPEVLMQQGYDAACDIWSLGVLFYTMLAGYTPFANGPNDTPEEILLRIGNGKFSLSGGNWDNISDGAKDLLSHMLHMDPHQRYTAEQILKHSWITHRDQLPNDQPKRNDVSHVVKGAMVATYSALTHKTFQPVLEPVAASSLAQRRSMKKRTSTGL
measurement setup: at 1 µM
# number only, unit % dropped from output

Consider the following illustrative entries.
O=c1[nH]c2ccccc2n1C1CCN(Cc2ccc(-c3nc4cc5[nH]cnc5cc4nc3-c3ccccc3)cc2)CC1; 106
c1cc(-c2cnn3cc(-c4ccc(OCCN5CCCCC5)cc4)cnc23)ccn1; 68

Data request: Bench note: what residual activity did COc1ccc2c(c1)/C(=C/c1cnc[nH]1)C(=O)N2 show?
Data returned: 53

Data request: Consider the molecule CC(C)(C)c1cc(C=C(C#N)C#N)cc(Br)c1O and give its measured residual activity.
Data returned: 98

Data request: Need residual activity of O=C1NC(=O)c2c1c1c3ccccc3n3c1c1c2c2ccccc2n1C1CCC3O1 , thanks.
Data returned: 9

Data request: Requested read-out: residual activity. Entry: O=[N+]([O-])/C=C/c1ccc2c(c1)OCO2
Data returned: 128

Data request: GET /values?readout=residual activity&item= COc1cc(OC)c(/C=C2\C(=O)Nc3ccccc32)c(OC)c1
Data returned: 103

Data request: Recorded residual activity of COC(=O)[C@@]1(O)C[C@H]2O[C@]1(C)n1c3ccccc3c3c4c(c5c6ccccc6n2c5c31)C(=O)NC4 , please.
Data returned: -2

Data request: Param item = O=C1Nc2ccc3ncsc3c2/C1=C/c1c[nH]cn1 ; retrieve measured residual activity.
Data returned: 14

Data request: Name the recorded residual activity for CCn1cnc2c(Nc3cccc(Cl)c3)nc(N[C@@H]3CCCC[C@@H]3N)nc21 .
Data returned: 24

---

assayed target: Hepatocyte growth factor receptor (Homo sapiens) (UniProt P08581)
Sequence (P08581 whole entry): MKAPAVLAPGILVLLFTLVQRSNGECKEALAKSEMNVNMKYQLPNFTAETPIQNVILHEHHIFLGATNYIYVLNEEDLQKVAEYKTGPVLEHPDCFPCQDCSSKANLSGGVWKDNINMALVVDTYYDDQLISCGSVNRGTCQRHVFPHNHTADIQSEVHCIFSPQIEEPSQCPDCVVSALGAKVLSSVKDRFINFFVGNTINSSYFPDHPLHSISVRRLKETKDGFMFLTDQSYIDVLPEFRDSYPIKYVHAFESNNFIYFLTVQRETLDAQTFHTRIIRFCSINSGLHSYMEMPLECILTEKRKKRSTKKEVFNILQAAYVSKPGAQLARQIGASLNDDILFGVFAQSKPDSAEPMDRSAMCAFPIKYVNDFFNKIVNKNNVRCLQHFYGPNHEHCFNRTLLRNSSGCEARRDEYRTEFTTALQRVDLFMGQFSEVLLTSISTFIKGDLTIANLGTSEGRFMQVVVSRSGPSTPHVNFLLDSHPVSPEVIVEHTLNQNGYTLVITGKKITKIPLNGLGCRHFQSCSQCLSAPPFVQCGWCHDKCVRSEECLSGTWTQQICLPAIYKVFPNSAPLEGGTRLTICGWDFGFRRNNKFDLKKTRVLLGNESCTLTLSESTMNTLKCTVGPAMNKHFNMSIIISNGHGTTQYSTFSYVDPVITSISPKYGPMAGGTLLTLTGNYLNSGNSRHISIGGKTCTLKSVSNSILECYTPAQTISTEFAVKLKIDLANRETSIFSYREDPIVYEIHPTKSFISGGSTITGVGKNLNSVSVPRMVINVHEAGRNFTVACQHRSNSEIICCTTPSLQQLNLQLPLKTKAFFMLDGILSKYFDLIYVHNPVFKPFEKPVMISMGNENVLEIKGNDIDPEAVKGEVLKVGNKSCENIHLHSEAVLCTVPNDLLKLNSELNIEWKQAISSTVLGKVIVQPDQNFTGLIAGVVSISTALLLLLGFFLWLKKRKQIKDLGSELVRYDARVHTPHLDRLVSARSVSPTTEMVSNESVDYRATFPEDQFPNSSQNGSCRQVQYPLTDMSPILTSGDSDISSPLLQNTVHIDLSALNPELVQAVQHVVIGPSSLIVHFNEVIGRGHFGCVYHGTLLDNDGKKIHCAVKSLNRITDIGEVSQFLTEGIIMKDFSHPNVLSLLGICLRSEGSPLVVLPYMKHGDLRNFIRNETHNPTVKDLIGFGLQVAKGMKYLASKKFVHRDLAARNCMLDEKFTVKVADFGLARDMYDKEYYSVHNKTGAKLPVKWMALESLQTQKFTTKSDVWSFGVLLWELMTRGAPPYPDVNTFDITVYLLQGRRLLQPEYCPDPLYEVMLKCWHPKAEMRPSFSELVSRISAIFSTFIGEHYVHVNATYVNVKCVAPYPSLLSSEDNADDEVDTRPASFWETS
measurement setup: at 10 µM
readout kind: residual activity
Field: value (include unit after the number)

Illustrative cases are given below, each with its answer.
CCn1cnc2c(Nc3cccc(Cl)c3)nc(N[C@@H]3CCCC[C@@H]3N)nc21; 72%
O=c1[nH]c2ccccc2n1C1CCN(Cc2ccc(-c3nc4cc5[nH]cnc5cc4nc3-c3ccccc3)cc2)CC1; 88%

Data request: What value of measured residual activity is listed for COc1cc(OC)c(/C=C2\C(=O)Nc3ccccc32)c(OC)c1 ?
Data returned: 94%

Data request: Reported residual activity, compound O=C1c2ccccc2-c2nc3nnnn3nc21 : ____
Data returned: 133%
